System: Drosophila virilis antennal basiconic sensillum AB7
Assay method text: odor-evoked OSN spike response (post minus pre-stimulus); higher = stronger neuronal excitation
Test settings: odor dilution: 10^-4
I would appreciate it if you labelled entries TRUE when odor-evoked OSN spike response is 60 spikes/s or higher, otherwise FALSE.

# Molecule, Class name
rows = [
    ("CC(C)CCO [Isopentyl alcohol]", "FALSE"),
    ("CCOC(=O)CC(C)O (stereo not drawn) [Ethyl-3-hydroxybutyrate]", "TRUE"),
    ("CCCC(=O)OCC [ethyl butanoate]", "TRUE"),
    ("CCOC(=O)C(C)O (stereo not drawn) [Ethyl lactate]", "FALSE"),
    ("CCCCCC(C)=O [2-heptanone]", "TRUE"),
    ("CCCC(O)CC (stereo not drawn) [3-hexanol]", "FALSE"),
]

--- query ---
Determine whether measured odor-evoked OSN spike response meets or exceeds 60 spikes/s for C=CC(O)CCCCC (stereo not drawn) [1-octen-3-ol]
TRUE

---

Test system: Drosophila virilis antennal basiconic sensillum AB6
Assay method text: odor-evoked OSN spike response (post minus pre-stimulus); higher = stronger neuronal excitation
Test settings: odor dilution: 10^-4
// odor-evoked OSN spike response lookup, one value per entry
Write the number in spikes/s without appending the unit.

Field: example entries. Status: answers known.
# Compound, odor-evoked OSN spike response / spikes/s
rows = [
    ("CCOC(=O)CC(C)O (centres undefined) [Ethyl-3-hydroxybutyrate]", 63.2),
    ("COc1ccccc1O", 73.3),
    ("CCOC(=O)C(C)O (centres undefined) [Ethyl lactate]", 50),
]

Next compound, odor-evoked OSN spike response to be filled in.
Please look up its odor-evoked OSN spike response: C=CC(O)CCCCC (centres undefined)
114

---

System: Drosophila ezoana antennal basiconic sensillum ab6
Assay method text: odor-evoked OSN spike response (post minus pre-stimulus); higher = stronger neuronal excitation
Test settings: odor dilution: 10^-4
Recorded metric: odor-evoked OSN spike response (spikes/s)
Lab book: enter the figure in spikes/s, no units written.

# Compound, Result
data = [
    ("OCCc1ccccc1 [2-phenylethanol]", 53),
    ("CCOC(=O)c1ccccc1 [ethyl benzoate]", 66.1),
    ("CCOC(=O)CC(C)O (stereo unspecified) [Ethyl-3-hydroxybutyrate]", 93.1),
    ("C/C=C/C(=O)OCC [Ethyl crotonate]", 71.1),
    ("CCCCCC(C)=O [2-heptanone]", 60.9),
]

Form field: reported odor-evoked OSN spike response of C=CC(O)CCCCC (stereo unspecified) [1-octen-3-ol]
143

Consider the compound shown here: CCCCCCO [1-hexanol] What is its recorded odor-evoked OSN spike response?
77.5

Using the record for COc1ccccc1O [guaiacol] , report its odor-evoked OSN spike response.
123

What value of odor-evoked OSN spike response has been recorded for this entry: COC(=O)c1ccccc1O [Methyl salicylate]
58.3

Dear colleague, I am looking for the recorded odor-evoked OSN spike response of the following compound: CCCCCOC(C)=O [pentyl acetate]
67.9

Entry CCOC(C)=O [Ethyl acetate] has what odor-evoked OSN spike response?
55.2

---

Test system: Drosophila ezoana antennal basiconic sensillum ab8
Assay method text: odor-evoked OSN spike response (post minus pre-stimulus); higher = stronger neuronal excitation
Test settings: odor dilution: 10^-4
Decide by odor-evoked OSN spike response: equal to or exceeding 90 spikes/s means Fulfilled, less means Not fulfilled.

# Compound, Tgt, Class name
rows = [
    ("CC(=O)c1ccccc1 [Acetophenone]", "Drosophila ezoana antennal basiconic sensillum ab8", "Not fulfilled"),
    ("CCCCCC(C)=O [2-heptanone]", "Drosophila ezoana antennal basiconic sensillum ab8", "Not fulfilled"),
    ("CCCCCOC(C)=O [pentyl acetate]", "Drosophila ezoana antennal basiconic sensillum ab8", "Fulfilled"),
    ("CCCC(O)CC (stereo not given) [3-hexanol]", "Drosophila ezoana antennal basiconic sensillum ab8", "Not fulfilled"),
]

Okay, next one:
I'd appreciate it if you could say whether CCC(=O)OCCC(C)C [Isopentyl propionate] has odor-evoked OSN spike response at least equal to 90 spikes/s.
Not fulfilled

---

System: Drosophila ezoana antennal basiconic sensillum ab7
Assay method text: odor-evoked OSN spike response (post minus pre-stimulus); higher = stronger neuronal excitation
Test settings: odor dilution: 10^-4
Recorded metric: odor-evoked OSN spike response
Respond with a number, then the unit of measure.

Field request: odor-evoked OSN spike response | item: `CCCCCCO`
53.6 spikes/s

---

System: Drosophila virilis antennal basiconic sensillum AB3
Assay method text: odor-evoked OSN spike response (post minus pre-stimulus); higher = stronger neuronal excitation
Test settings: odor dilution: 10^-4
Recorded metric: odor-evoked OSN spike response (spikes/s)
Field format: number, assumed spikes/s, no unit text.

Examples from the recorded data:
# Compound, Result
rows = [
    ("CCCCCOC(C)=O [pentyl acetate]", 121),
    ("CCOC(=O)C(C)O (centres undefined) [Ethyl lactate]", 156),
    ("CCCCCC(=O)OCC [ethyl hexanoate]", 153),
]

I am curious: what odor-evoked OSN spike response value has been reported for CCOC(=O)CC(C)O (centres undefined) [Ethyl-3-hydroxybutyrate] ?
167

---

Test system: Drosophila virilis antennal basiconic sensillum AB5
Assay method text: odor-evoked OSN spike response (post minus pre-stimulus); higher = stronger neuronal excitation
Test settings: odor dilution: 10^-4
Known odor-evoked OSN spike response of a selection of molecules
Report the figure in spikes/s without appending any unit label.

Known odor-evoked OSN spike response results, listed for orientation:
# Molecule, Result
records = [
    ("COC(=O)c1ccccc1 [methyl benzoate]", 49.2),
    ("CC(=O)OC/C=C(\\C)CCC=C(C)C [geranyl acetate]", 81),
    ("CC(=O)c1ccccc1", 65.7),
]

Note: attention shifts to another entry.
Return reported odor-evoked OSN spike response; argument: `COc1cccc(OC)c1O`
54

---

Tested on: Drosophila ezoana antennal basiconic sensillum ab7
Assay method text: odor-evoked OSN spike response (post minus pre-stimulus); higher = stronger neuronal excitation
Test settings: odor dilution: 10^-4
Recorded metric: odor-evoked OSN spike response (spikes/s)
Field format: number, assumed spikes/s, no unit text.

Consider the following illustrative entries.
# Compound, odor-evoked OSN spike response / spikes/s
data = [
    ("CCCCCCCC(C)=O", 66.8),
    ("CCCCCC(C)=O", 138),
    ("CCOC(=O)C(C)O (stereo unspecified) [Ethyl lactate]", 60.2),
    ("CCCCC(C)O (stereo unspecified)", 56.1),
    ("C=CC(O)CCCCC (stereo unspecified)", 107),
]

odor-evoked OSN spike response for `CCCC(=O)CC` ?
53.1

---

Tested on: Drosophila ezoana antennal basiconic sensillum ab3
Assay method text: odor-evoked OSN spike response (post minus pre-stimulus); higher = stronger neuronal excitation
Test settings: odor dilution: 10^-4
In this section, each of the compounds is paired with its reported odor-evoked OSN spike response.
// return numeric value only (unit: spikes/s, not printed)

Here are 5 compounds together with their reported answers.
# Compound, Result
records = [
    ("CCCC(=O)CC", 52),
    ("CCOC(=O)C(C)O (stereo not drawn) [Ethyl lactate]", 129),
    ("CCCCCC(=O)OCC [ethyl hexanoate]", 141),
    ("CCCCCCOC(C)=O [Hexyl acetate]", 121),
    ("CCOC(=O)c1ccccc1 [ethyl benzoate]", 64),
]

Given the compound CCCCCOC(C)=O [pentyl acetate] , what is its reported odor-evoked OSN spike response?
120

Can you share its odor-evoked OSN spike response? I mean this compound: `CCCCC(C)=O`
52.9

Given CC(C)=CCCC(C)=CC=O (mixture of isomers) , state its recorded odor-evoked OSN spike response.
52.2

I am curious: what odor-evoked OSN spike response value has been reported for CCCCC(C)O (stereo not drawn) ?
55

Data request, read-out odor-evoked OSN spike response, for `CCCCCCO`
53

// lookup odor-evoked OSN spike response for CCCOC(C)=O [propyl acetate]
50

What odor-evoked OSN spike response value was documented for this compound, CCOC(C)=O [Ethyl acetate] ?
60.2

What measured odor-evoked OSN spike response goes with CCOC(=O)CC(C)O (stereo not drawn) [Ethyl-3-hydroxybutyrate] ?
133

---

Tested on: Drosophila virilis antennal basiconic sensillum AB8
Assay method text: odor-evoked OSN spike response (post minus pre-stimulus); higher = stronger neuronal excitation
Test settings: odor dilution: 10^-4
Recorded metric: odor-evoked OSN spike response (spikes/s)
I only need the number, in spikes/s, no unit after it.

# Compound, Tgt, Unit annotation, Result
rows = [
    ("C=CC(O)CCCCC (centres undefined) [1-octen-3-ol]", "Drosophila virilis antennal basiconic sensillum AB8", "spikes/s", 113),
    ("CCCCCCOC(C)=O [Hexyl acetate]", "Drosophila virilis antennal basiconic sensillum AB8", "spikes/s", 35.3),
    ("CCCCCC(=O)OCC [ethyl hexanoate]", "Drosophila virilis antennal basiconic sensillum AB8", "spikes/s", 66.1),
]

// switching to the query compound
So what's the measured odor-evoked OSN spike response for this one? CCC(=O)OCCC(C)C [Isopentyl propionate]
56.8
